# Assay: Phase 1 study, MAD cohorts: plasma pharmacokinetics
# Format: in vivo, human
# Condition Parameters: both sexes, human, plasma, oral, 12 mg, healthy subjects, MAD Day 14, 12 mg, fed; mean; read-out: Cmax
Metric: Cmax (ng/mL)
Quick reminder: number only, in ng/mL, skip the unit.

Name the recorded Cmax for N#Cc1cccc(C#N)c1-c1c(-c2cccc(-c3ccc(C(=O)NCC(=O)O)cc3Cl)c2)n(S(=O)(=O)c2ccc(C(F)F)cc2)c2ccc(F)cc12 .
4.85

----------
# Assayed System: LXRβ (Homo sapiens, UniProt P55055)
# Construct: LXRβ (amino acids 156-461); expressed in transfected cells; host or cells: HEK293
# Sequence (P55055 156-460): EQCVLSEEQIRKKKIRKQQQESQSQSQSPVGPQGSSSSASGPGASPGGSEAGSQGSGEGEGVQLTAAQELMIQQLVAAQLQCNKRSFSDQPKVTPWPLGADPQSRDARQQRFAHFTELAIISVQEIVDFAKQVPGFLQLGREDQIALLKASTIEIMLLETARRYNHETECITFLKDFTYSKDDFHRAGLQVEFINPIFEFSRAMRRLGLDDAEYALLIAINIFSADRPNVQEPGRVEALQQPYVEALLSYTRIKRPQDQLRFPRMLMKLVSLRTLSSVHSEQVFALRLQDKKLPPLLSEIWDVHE
# Assay: LXR Gal4 reporter transient transfection assay (mammalian two-hybrid, HEK293), LXRβ
# Assay type: cell-based
# Condition Parameters: ligand-binding domain (LBD) of LXRβ, HEK293; read-out: LBD-M2H Gal4β
pEC50: −log10 of the molar value.
Metric: pEC50

What value of measured pEC50 is listed for N#Cc1sccc1-c1c(-c2cccc(N3CCC(C(=O)O)C3)c2)n(S(=O)(=O)c2ccc(Cl)cc2)c2ccccc12 (stereo not drawn) [30/11] ?
> 7.00

Would you kindly share the measured pEC50 for Cc1ccc(S(=O)(=O)n2c(-c3cccc(N4CC(C(=O)O)C4)c3)c(-c3ccsc3C#N)c3cc(Cl)ccc32)cc1 [3/44] ?
> 7.00

Given N#Cc1sccc1-c1c(-c2cccs2)n(S(=O)(=O)c2ccc(Cl)cc2)c2ccccc12 [20/13] , state its recorded pEC50.
> 7.00

----------
# Assayed System: GST-LXRβ ligand-binding domain (Homo sapiens, UniProt P55055)
# Construct: amino acids 156-461; NP009052
# Assay: TR-FRETβ activity assay (NCoA3 coactivator peptide recruitment)
# Condition Parameters: 1 μM 24(S)-25-epoxycholesterol prestimulation
# Method: Recombinant GST-LXRβ ligand-binding domain (LBD; amino acids 156-461; NP009052; SEQ ID NO:4) was expressed in E. coli and purified via gluthatione-sepharose affinity chromatography. […] The reaction was mixed thoroughly, equilibrated for 1 h at 4° C. and vicinity of LXRβ and coactivator peptide was detected by measurement of fluorescence in a VictorX4 multiplate reader (PerkinElmer Life Science) using 340 nm as excitation and 615 and 665 nm as emission wavelengths. […]
Metric: EC50

Some solved cases for reference:
Endpoint output: EC50 of Cc1ccc(S(=O)(=O)n2c(-c3cccc(-c4ccc(C(N)=O)cc4)c3)c(-c3ccsc3C#N)c3cc(F)ccc32)cc1 . Value?
100 to 1000 nM

Given the entry Cc1ccc(S(=O)(=O)n2c(-c3cccc(-c4cccc(C(=O)O)c4)c3)c(-c3ccsc3C#N)c3ccccc32)cc1 , report its measured EC50.
100 to 1000 nM

Which EC50 is listed for Cc1ccc(S(=O)(=O)n2c(-c3cccc(-c4ccc(C(=O)O)cc4Cl)c3)c(-c3cccc(C)c3C#N)c3cc(F)ccc32)cc1 ?
< 100 nM

Please find the next compound below.
Quick one: EC50 of O=C(O)c1ccc(-c2cccc(-c3c(-c4ncccc4OC(F)F)c4cc(F)ccc4n3S(=O)(=O)c3ccc(C(F)F)cc3)c2)c(Cl)c1 ?
< 100 nM

----------
# Assayed System: GST-LXRβ ligand-binding domain (Homo sapiens, UniProt P55055)
# Construct: amino acids 156-461; NP009052
# Sequence (P55055 156-460 limits assumed): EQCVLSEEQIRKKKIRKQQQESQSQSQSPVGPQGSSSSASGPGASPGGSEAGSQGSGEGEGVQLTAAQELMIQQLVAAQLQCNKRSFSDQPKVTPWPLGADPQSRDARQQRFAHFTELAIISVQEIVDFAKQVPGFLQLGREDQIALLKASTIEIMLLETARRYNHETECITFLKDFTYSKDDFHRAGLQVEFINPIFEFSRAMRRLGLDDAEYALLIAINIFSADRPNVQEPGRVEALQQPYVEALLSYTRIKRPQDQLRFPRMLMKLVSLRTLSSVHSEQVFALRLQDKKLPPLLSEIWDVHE
# Assay: TR-FRETβ activity assay (NCoA3 coactivator peptide recruitment)
# Condition Parameters: 1 μM 24(S)-25-epoxycholesterol prestimulation
Items are presented alongside their recorded EC50.

Item under review: Cc1ccc(S(=O)(=O)n2c(-c3cccc(-c4cccc(C(=O)NS(C)(=O)=O)c4)c3)c(-c3ccsc3C#N)c3ccccc32)cc1 . Reported EC50?
100 to 1000 nM

If you can, please state the reported EC50 value of Cc1ccc(S(=O)(=O)n2c(-c3cccc(C#CC(C)(C)C(=O)O)c3)c(-c3ccsc3C#N)c3cc(F)ccc32)cc1 .
1000 to 10000 nM

What value of measured EC50 is listed for Cc1ccc(S(=O)(=O)n2c(-c3cccc(-c4cc(C(=O)O)nn4C(C)C)c3)c(-c3ccsc3C#N)c3cc(F)ccc32)cc1 ?
1000 to 10000 nM

---
Data request, read-out EC50, for N#Cc1sccc1-c1c(-c2cccc(-c3cc(F)c(C(=O)O)cc3Cl)c2)n(S(=O)(=O)c2ccc(CF)cc2)c2ccc(F)cc12
< 100 nM

----------
# Assayed System: LXRα (Homo sapiens)
# Sequence (Q13133 1-447): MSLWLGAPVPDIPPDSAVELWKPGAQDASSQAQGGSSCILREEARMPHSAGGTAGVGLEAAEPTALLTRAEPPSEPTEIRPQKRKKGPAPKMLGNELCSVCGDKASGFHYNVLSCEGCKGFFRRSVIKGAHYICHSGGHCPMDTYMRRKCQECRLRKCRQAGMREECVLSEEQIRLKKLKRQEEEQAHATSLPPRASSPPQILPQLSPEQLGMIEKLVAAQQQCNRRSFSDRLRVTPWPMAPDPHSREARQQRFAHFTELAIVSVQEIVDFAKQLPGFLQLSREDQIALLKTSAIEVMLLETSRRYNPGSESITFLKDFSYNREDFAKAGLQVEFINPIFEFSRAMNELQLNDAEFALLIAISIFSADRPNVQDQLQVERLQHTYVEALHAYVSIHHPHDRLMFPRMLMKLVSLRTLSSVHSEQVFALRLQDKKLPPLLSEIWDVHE
# Assay: Biochemical binding assay LXRα
# Condition Parameters: mean ± SD; read-out: LXα binding EC50
Entries and their EC50 values follow.
Unit nM implied. Number only.

For N#Cc1cccc(C#N)c1-c1c(-c2cccc(-c3ccc(C(=O)O)cc3Cl)c2)n(S(=O)(=O)c2ccc(C(F)F)cc2)c2ccc(F)cc12 , what is its reported EC50?
14

Which EC50 is reported for this molecule? N#Cc1cccc(C#N)c1-c1c(-c2cccc(-c3ccc(C(=O)NCC(=O)O)cc3Cl)c2)n(S(=O)(=O)c2ccc(C(F)F)cc2)c2ccc(F)cc12
7

----------
# Assay: Phase 1 study, MAD cohorts: plasma pharmacokinetics
# Type: in vivo, human
# Condition Parameters: both sexes, human, plasma, oral, 2 mg, healthy subjects, MAD Day 14, 2 mg, fed; median; read-out: t1/2 (converted)
Metric: half-life (h)
Record the value in h, omitting the unit from your answer.

Endpoint output: half-life of N#Cc1cccc(C#N)c1-c1c(-c2cccc(-c3ccc(C(=O)NCC(=O)O)cc3Cl)c2)n(S(=O)(=O)c2ccc(C(F)F)cc2)c2ccc(F)cc12 [Compound 21/3] . Value?
1.43

----------
# Assay: Pharmacokinetics in mice after single oral dosing (blood/plasma and liver exposure)
# Type: in vivo
# Condition Parameters: 20 mg/kg single oral dose, time point 4 h
Metric: liver/blood ratio

Fill in: liver/blood ratio of N#Cc1sccc1-c1c(-c2cccc(N3CC(C(=O)O)C3)c2)n(S(=O)(=O)c2ccc(Cl)cc2)c2ccccc12 is ___
D (>30)

Given N#Cc1sccc1-c1c(-c2cccc(C3CC3C(=O)O)c2)n(S(=O)(=O)c2ccc(Cl)cc2)c2ccc(F)cc12 (centres unmarked) , state its recorded liver/blood ratio.
D (>30)

Value lookup for liver/blood ratio; key = Cc1ccc(S(=O)(=O)n2c(-c3cccc(-c4ccc(C(=O)O)cc4)c3)c(-c3ccsc3C#N)c3cc(F)ccc32)cc1
C (10 to ≤30)

What value of liver/blood ratio has been reported for the following compound? Cc1ccc(S(=O)(=O)n2c(-c3cccc(-c4ccc(C(=O)O)cc4)c3)c(-c3ccsc3C#N)c3cc(F)ccc32)cc1C
C (10 to ≤30)

----------
# Assayed System: GST-LXRβ ligand-binding domain (Homo sapiens, UniProt P55055)
# Construct: amino acids 156-461; NP009052
# Assay: TR-FRETβ activity assay (NCoA3 coactivator peptide recruitment)
# Condition Parameters: 1 μM 24(S)-25-epoxycholesterol prestimulation
pEC50: −log10 of the molar value.
Listed below: pEC50 values for each entry.

Example cases with answers are listed next.
Notebook entry, GST-LXRβ ligand-binding domain (Homo sapiens, UniProt P55055) assay: pEC50 of Cc1ccc(S(=O)(=O)n2c(-c3cccc(-c4ccc(C(=O)O)c(Cl)c4)c3)c(-c3ccsc3C#N)c3cc(F)ccc32)cc1 [3/49] = ?
6.00 to 7.00

Hello, I am looking for reported pEC50 with GST-LXRβ ligand-binding domain (Homo sapiens, UniProt P55055) for CN(CCS(=O)(=O)O)C(=O)c1ccc(-c2cccc(-c3c(-c4c(C#N)cccc4C#N)c4cc(F)ccc4n3S(=O)(=O)c3ccc(C(F)F)cc3)c2)c(Cl)c1 [10/2] . Could you help?
> 7.00

Give GST-LXRβ ligand-binding domain (Homo sapiens, UniProt P55055) pEC50 for N#Cc1cccc(C#N)c1-c1c(-c2cccc(-c3ccc(C(=O)O)cc3Cl)c2)n(S(=O)(=O)c2ccc(C(F)F)cc2)c2cc(F)c(O)cc12 [Compound 44]
6.00 to 7.00

API: value(readout= pEC50, system= GST-LXRβ ligand-binding domain (Homo sapiens, UniProt P55055), query= N#Cc1cscc1-c1c(-c2cccs2)n(S(=O)(=O)c2ccc(Cl)cc2)c2ccccc12 [20/4] )
5.00 to 6.00

Kindly state the measured pEC50 obtained for N#Cc1sccc1-c1c(-c2cccc(N3CC(C(=O)O)C3)c2)n(S(=O)(=O)c2ccc(C(F)F)cc2)c2ccc(F)cc12 [3/35] with GST-LXRβ ligand-binding domain (Homo sapiens, UniProt P55055).
6.00 to 7.00

Continuing:
Provide value of pEC50 for this record tested with GST-LXRβ ligand-binding domain (Homo sapiens, UniProt P55055): Cn1cnc(S(=O)(=O)n2c(-c3cccs3)c(-c3ccsc3C#N)c3ccccc32)c1 [1/28]
5.00 to 6.00

Could you share what pEC50 was measured for N#Cc1cccc(C#N)c1-c1c(-c2cccc(-c3ccc(S(=O)(=O)O)cc3Cl)c2)n(S(=O)(=O)c2ccc(C(F)F)cc2)c2ccc(F)cc12 [12/10] , tested on GST-LXRβ ligand-binding domain (Homo sapiens, UniProt P55055)?
> 7.00
